SYSTEM_TESTED: Complement C5 full length (Homo sapiens) (UniProt P01031+P01031)
Sequence (P01031 19-673, chain 1 of 2): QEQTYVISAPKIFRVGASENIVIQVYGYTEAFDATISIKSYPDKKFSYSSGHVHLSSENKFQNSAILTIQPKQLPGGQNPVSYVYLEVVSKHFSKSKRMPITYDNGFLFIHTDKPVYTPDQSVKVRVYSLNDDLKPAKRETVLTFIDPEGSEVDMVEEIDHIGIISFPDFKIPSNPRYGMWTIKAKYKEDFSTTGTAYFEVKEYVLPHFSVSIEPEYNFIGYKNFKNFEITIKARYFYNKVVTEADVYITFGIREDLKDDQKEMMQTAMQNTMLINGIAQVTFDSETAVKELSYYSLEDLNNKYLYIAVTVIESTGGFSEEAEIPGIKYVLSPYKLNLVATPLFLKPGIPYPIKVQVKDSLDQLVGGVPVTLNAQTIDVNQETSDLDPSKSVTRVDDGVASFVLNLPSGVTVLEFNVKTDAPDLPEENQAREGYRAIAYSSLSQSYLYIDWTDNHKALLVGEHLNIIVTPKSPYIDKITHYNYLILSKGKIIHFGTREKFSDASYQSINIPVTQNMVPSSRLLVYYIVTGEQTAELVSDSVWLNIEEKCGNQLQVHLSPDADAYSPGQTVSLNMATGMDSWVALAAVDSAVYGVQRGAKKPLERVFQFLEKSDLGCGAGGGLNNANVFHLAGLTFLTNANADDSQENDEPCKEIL
Sequence (P01031 678-1676, chain 2 of 2): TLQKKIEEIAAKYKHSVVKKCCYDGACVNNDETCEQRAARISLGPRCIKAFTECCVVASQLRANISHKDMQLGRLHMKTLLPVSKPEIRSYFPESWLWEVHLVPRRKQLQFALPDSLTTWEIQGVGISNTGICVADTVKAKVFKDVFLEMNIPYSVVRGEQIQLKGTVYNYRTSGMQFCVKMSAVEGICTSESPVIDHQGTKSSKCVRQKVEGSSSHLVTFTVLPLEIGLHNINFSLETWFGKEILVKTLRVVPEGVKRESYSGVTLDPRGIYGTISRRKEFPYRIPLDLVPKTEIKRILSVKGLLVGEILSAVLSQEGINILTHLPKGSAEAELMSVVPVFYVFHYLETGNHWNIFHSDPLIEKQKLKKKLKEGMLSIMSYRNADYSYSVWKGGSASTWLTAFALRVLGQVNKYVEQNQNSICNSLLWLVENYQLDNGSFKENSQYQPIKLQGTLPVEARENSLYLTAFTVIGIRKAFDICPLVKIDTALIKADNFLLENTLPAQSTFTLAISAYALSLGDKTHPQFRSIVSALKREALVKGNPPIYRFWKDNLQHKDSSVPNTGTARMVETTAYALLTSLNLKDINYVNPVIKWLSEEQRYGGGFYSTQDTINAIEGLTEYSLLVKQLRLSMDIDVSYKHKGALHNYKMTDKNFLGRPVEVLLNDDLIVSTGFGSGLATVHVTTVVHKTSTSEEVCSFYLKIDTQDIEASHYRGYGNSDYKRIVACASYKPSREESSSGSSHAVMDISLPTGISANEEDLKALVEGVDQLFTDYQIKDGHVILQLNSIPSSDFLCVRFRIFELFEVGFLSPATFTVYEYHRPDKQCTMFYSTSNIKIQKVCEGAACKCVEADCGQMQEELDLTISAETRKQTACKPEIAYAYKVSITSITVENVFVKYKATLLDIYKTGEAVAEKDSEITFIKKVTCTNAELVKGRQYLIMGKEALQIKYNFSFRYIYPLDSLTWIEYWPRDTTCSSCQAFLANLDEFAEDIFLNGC
PROTOCOL: filter
DETAILS: dRmY: deoxy A,G; 2'-OMe C,U; selection on partially trypsinized C5; plateau about 10%
MEASUREMENT_TYPE: pKd
Note on pKd: it is the negative log10 of concentration, concentration in mol/L.

The recorded pKd for GGGAGAGGAGAGAACGUUCUACNNNNNNNNNNNNNNNNNNNNNNNNNNNNNNGGUCGAUCGAUCGAUCAUCGAUG [C5 partially trypsinized selection round 10 dRmY pool] is 6.82

* * *

SYSTEM_TESTED: IL-23 (Homo sapiens) (UniProt Q9NPF7+P29460)
Sequence (Q9NPF7 20-189, chain 1 of 2): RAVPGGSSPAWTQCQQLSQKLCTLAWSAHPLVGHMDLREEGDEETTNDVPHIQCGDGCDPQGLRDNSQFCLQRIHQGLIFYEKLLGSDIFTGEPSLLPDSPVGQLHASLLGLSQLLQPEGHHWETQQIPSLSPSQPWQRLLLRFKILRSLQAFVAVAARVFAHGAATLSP
Sequence (P29460 23-328, chain 2 of 2): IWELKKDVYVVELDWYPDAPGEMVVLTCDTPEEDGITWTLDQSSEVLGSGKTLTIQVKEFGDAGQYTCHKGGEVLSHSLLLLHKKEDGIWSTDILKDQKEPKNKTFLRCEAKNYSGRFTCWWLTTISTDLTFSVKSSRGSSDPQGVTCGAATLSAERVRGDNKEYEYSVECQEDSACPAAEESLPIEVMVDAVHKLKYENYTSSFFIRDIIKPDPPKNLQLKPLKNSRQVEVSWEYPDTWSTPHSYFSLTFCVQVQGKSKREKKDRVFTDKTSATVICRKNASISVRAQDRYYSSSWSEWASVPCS
PROTOCOL: filter
DETAILS: 2'-OMe A,C,U; 2'-OH G; approximately 500 nM or higher; DPBS, 0.1 mg/ml tRNA
MEASUREMENT_TYPE: Kd

The recorded Kd for GGGNGNGGNGNGNNCGUUCUNCNNNNNNNNNNNNNNNNNNNNNNNNNNNNNNCGCUGUCGNUCGNUCGNUCGNUG [IL-23 rGmH round 10 pool] is > 0.5 µM
